test: Inhibition of P-gp in HEK293/ABCB1 cells assessed as potentiation of cisplatin-induced cytotoxicity by measuring cisplatin IC50 at 2 uM incubated for 48 hrs by MTT assay (Rvb = 8.08 uM)
property: IC50 (nM)
Entry rule: numbers only, all in nM.

// query IC50 value for entry CCOc1cc(O)cc2c1C[C@@H](OC(=O)c1cc(OCC)c(OCC)c(OCC)c1)[C@@H](c1cc(O)c(OCC)c(OCC)c1)O2
920

###

biological target: UniProtKB P08183; assay: Inhibition of P-gp in human NCI-H460/R cells assessed as potentiation of doxorubicin-induced cytotoxicity by measuring reduction in doxorubicin IC50 at 0.1 to 2.5 uM incubated for 72 hrs by MTT assay
Residues, ends and D or L forms follow the SMILES beside them.
property: IC50 (nM)
Your answer should be a plain number; it is taken to be in nM.

Given CC(C)[C@H](NC(=O)[C@H](CO)NC(=O)[C@@H](N)Cc1ccc(O)cc1)C(=O)O (H-Tyr-Ser-Val-OH) , state its recorded IC50.
700

###

molecular target: ATP-dependent translocase ABCB1 (Homo sapiens); experiment: Inhibition of P-gp in human Caco2 cells assessed as potentiation of doxorubicin-induced cytotoxicity by measuring reduction in doxorubicin IC50 at 2.2 uM incubated for 24 hrs by MTT assay
Sequence (P08183 whole entry): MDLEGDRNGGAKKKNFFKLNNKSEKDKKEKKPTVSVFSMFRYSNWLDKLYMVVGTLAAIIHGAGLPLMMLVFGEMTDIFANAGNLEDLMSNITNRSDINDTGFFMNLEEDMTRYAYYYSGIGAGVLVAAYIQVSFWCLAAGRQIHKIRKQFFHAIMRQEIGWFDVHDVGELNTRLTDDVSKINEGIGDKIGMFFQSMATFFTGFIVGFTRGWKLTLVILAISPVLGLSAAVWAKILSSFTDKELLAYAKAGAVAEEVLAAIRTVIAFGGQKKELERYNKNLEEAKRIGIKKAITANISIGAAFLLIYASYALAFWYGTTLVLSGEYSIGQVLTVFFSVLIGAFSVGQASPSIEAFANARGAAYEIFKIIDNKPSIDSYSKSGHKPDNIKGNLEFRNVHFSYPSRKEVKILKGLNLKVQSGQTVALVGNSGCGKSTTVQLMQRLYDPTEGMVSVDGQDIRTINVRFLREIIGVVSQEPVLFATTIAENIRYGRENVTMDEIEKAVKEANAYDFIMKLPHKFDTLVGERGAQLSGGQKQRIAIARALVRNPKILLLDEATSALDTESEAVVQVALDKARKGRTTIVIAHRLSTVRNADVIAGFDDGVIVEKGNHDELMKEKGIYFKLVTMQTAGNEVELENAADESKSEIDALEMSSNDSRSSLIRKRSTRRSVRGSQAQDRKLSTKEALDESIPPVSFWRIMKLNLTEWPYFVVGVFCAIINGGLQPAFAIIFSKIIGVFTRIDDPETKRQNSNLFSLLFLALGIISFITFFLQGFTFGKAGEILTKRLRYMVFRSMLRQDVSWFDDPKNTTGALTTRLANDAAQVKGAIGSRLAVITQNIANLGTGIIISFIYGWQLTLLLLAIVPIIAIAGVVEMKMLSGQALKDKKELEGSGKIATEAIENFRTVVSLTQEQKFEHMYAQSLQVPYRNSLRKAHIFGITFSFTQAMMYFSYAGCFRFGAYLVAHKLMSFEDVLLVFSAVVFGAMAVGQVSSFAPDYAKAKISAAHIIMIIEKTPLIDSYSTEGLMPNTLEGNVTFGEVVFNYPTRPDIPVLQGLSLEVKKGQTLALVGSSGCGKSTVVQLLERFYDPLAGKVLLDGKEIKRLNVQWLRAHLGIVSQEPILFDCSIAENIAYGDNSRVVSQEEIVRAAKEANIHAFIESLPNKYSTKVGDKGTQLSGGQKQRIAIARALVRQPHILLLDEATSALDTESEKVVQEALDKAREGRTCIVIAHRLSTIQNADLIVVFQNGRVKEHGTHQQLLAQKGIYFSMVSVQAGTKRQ
property: pIC50
Scale for pIC50: -log10 of concentration given in mol/L; no unit attached.

GET /values?readout=pIC50&item= CC1(C)O[C@H]2CC(=O)OC[C@]23[C@H]2CC[C@@]4(C)[C@H](c5ccoc5)OC(=O)[C@H]5O[C@]54[C@]2(C)C(=O)C[C@@H]13
4.72
